- SYSTEM: ELAV-like protein 1 (Homo sapiens, UniProt Q15717)
- Sequence (Q15717 whole entry, the tested form may be a part): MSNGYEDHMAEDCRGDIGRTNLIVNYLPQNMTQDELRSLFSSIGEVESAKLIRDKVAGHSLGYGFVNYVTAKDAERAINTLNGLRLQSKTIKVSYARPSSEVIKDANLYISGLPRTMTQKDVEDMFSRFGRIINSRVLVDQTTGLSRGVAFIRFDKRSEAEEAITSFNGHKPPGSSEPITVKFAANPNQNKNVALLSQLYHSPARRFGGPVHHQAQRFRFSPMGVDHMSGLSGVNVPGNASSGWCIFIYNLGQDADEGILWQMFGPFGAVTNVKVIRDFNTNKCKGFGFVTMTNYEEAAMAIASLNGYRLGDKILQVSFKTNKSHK
- PROTOCOL: Inhibition of recombinant HuR RRM1/RRM2 domain assessed as protein interaction with TMR-labeled A/U-rich element of TNFalpha by confocal fluctuation spectroscopy
PARAMETER MEASURED: Kd (nM)
Value expressed in nM; do not type the unit.

Task: // returns reported Kd for input Cc1occ2c1C(=O)c1c(O)ccc(O)c1C2
Output: 14

====

- SYSTEM: UniProtKB Q15717
- PROTOCOL: Inhibition of recombinant HuR RRM1/RRM2 domain assessed as protein interaction with TMR-labeled A/U-rich element of IL-2 by confocal fluctuation spectroscopy
PARAMETER MEASURED: Kd (nM)
Report the figure in nM without appending any unit label.

Task: Lab request: please report Kd under test system UniProtKB Q15717 for Cc1occ2c1C(=O)c1c(O)ccc(O)c1C2
Output: 230

====

- SYSTEM: ELAV-like protein 1 (Homo sapiens)
- PROTOCOL: Binding affinity recombinant HuR RRM1/RRM2 domain by confocal fluctuation spectroscopy
PARAMETER MEASURED: Kd (nM)
Quick reminder: number only, in nM, skip the unit.

Task: Tell me the measured Kd of Cc1occ2c1C(=O)c1c(O)ccc(O)c1C2 , please.
Output: 420

====

- SYSTEM: ELAV-like protein 1 (Homo sapiens, UniProt Q15717)
- PROTOCOL: Inhibition of recombinant HuR RRM1/RRM2 domain assessed as protein dimerization with TMR-labeled A/U-rich element of TNFalpha by confocal fluctuation spectroscopy
PARAMETER MEASURED: Kd (pM)
The reply should be a number in pM, with the unit left off.

Task: Would you kindly share the measured Kd for Cc1occ2c1C(=O)c1c(O)ccc(O)c1C2 ?
Output: 100

====

- Test system: Monocyte
- PROTOCOL: Inhibition of IL-6 gene expression in LPS/INF-gamma-stimulated human primary monocytes by RT-PCR analysis
PARAMETER MEASURED: IC50 (µM)
// units = µM; emit number, no label

Task: Which measured IC50 value corresponds to Cc1occ2c1C(=O)c1c(O)ccc(O)c1C2 ?
Output: 2.4

====

- SYSTEM: Myosin light chain kinase, smooth muscle (Homo sapiens, UniProt Q15746)
- Sequence (Q15746 whole entry): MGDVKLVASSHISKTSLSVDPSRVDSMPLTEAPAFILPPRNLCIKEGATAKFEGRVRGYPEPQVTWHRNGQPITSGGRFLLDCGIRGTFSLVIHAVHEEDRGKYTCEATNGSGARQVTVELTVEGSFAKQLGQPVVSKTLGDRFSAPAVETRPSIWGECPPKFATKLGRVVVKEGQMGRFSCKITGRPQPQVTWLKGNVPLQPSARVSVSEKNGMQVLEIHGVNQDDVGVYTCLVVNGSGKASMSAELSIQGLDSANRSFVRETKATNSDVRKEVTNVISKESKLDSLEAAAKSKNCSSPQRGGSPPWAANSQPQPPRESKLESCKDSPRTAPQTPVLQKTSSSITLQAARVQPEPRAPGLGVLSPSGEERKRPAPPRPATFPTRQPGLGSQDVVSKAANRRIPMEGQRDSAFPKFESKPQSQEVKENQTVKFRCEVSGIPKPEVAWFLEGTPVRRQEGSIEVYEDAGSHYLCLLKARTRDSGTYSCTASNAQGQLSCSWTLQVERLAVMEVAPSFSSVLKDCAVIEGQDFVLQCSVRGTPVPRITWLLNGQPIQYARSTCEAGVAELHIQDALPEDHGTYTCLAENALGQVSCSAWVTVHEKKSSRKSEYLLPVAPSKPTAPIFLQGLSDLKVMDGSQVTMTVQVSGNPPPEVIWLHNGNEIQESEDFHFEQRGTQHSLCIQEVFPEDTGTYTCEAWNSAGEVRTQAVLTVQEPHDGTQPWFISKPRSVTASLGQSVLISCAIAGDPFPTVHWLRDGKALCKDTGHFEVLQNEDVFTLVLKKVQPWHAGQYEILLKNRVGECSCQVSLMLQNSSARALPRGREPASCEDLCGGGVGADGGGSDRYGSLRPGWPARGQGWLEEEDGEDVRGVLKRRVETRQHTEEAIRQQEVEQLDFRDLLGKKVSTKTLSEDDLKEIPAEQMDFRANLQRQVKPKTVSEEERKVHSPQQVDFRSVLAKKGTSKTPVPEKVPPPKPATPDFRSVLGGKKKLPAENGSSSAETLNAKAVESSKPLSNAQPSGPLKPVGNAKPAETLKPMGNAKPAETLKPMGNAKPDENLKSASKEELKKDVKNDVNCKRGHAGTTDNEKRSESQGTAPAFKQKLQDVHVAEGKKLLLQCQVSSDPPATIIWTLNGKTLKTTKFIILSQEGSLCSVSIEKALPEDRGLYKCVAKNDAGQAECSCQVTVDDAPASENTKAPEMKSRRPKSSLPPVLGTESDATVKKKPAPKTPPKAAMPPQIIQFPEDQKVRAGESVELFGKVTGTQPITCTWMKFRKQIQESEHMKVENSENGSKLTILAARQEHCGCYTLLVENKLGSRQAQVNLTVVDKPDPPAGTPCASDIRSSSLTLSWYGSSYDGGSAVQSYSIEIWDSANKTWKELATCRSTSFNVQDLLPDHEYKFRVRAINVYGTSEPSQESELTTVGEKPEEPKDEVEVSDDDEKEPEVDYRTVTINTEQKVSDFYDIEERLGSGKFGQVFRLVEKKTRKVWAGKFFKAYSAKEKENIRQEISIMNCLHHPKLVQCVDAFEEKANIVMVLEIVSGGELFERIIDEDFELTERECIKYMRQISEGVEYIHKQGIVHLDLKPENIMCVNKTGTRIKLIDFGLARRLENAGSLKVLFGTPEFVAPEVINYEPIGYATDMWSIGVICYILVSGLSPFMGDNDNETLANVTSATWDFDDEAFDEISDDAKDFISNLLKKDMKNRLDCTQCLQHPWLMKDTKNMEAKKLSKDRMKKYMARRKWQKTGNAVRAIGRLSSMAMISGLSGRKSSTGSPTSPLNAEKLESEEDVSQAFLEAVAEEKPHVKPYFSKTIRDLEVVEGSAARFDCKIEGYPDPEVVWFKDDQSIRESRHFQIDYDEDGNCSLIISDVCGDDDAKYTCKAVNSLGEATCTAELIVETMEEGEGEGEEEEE
PARAMETER MEASURED: pIC50
Scale: negative log10 of molar concentration, which is what pIC50 denotes.

Task: What is its pIC50 for Myosin light chain kinase, smooth muscle (Homo sapiens, UniProt Q15746)? Entry: Cc1occ2c1C(=O)c1c(O)ccc(O)c1C2
Output: 5.00
